Kindly supply the reported IC50 values for the records listed here.
# TGT: human NaV1.8 (Homo sapiens, UniProt Q9Y5Y9)
# Sequence (Q9Y5Y9 whole entry): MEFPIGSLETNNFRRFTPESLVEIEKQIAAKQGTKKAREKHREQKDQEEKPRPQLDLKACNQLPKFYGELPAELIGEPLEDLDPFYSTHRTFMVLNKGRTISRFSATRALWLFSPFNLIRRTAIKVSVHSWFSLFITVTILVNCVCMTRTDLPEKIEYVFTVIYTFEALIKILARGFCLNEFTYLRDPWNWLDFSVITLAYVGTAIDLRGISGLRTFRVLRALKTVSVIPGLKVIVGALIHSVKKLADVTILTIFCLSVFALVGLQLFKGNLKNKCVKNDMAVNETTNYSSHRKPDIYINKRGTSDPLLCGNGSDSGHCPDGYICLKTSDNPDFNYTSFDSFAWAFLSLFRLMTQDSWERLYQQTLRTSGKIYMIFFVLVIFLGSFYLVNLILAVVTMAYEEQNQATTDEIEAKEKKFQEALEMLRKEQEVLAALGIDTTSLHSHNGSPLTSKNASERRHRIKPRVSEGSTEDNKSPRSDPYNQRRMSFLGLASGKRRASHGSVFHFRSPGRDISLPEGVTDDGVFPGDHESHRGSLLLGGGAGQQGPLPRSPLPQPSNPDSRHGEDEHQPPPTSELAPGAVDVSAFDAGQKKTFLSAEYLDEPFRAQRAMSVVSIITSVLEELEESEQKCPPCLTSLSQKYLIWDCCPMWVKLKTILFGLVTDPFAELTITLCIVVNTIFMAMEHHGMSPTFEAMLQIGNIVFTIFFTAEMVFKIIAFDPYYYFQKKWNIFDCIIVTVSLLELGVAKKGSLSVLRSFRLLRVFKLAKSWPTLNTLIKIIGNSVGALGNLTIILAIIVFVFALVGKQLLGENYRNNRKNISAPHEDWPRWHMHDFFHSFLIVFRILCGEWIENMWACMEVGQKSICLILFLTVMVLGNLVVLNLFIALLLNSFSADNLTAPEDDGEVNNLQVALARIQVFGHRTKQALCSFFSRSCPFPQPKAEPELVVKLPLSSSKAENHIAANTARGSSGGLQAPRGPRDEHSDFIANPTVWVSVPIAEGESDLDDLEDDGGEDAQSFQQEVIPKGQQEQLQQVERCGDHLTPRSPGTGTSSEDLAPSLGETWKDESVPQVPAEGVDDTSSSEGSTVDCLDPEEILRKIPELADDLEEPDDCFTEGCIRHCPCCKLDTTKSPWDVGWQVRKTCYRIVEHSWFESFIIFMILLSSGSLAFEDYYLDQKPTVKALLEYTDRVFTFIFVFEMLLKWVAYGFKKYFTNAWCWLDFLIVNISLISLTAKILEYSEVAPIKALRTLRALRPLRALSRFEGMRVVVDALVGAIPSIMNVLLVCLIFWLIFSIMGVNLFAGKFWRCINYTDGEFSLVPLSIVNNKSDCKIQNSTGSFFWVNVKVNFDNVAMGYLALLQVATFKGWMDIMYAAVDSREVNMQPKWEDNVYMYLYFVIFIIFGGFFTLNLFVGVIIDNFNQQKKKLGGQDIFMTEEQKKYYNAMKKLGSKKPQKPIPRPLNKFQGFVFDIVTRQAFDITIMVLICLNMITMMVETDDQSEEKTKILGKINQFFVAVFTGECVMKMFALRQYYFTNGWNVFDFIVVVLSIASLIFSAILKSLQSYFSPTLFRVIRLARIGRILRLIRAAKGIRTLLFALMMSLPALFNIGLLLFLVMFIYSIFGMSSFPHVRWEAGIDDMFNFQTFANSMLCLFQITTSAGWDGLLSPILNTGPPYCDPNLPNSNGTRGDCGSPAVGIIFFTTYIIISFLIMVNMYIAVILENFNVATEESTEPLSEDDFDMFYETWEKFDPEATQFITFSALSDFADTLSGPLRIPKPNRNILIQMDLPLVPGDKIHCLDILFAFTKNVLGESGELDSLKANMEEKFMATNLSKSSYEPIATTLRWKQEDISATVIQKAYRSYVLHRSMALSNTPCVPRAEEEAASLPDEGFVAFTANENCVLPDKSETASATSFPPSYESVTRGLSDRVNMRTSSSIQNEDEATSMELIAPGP
# ASSAY NOTES: Nav1.8 Qube® Assay (automated 384-well patch-clamp, inhibition of sodium current)
# TEST CONDITIONS: human NaV1.8 channels stably expressed in HEK 293 cells, room temperature
Form entry: enter the amount, then its unit.

Prompt: Look up IC50 with human NaV1.8 (Homo sapiens, UniProt Q9Y5Y9) for this molecule: C[C@@H]1C(=O)NCCN1C(=O)NC(c1ccc(F)c(Cl)c1F)C12CC(C(F)(F)F)(C1)C2 (single isomer, unassigned) [Example 30A]
Response: 281 nM

Prompt: Follow-up entry: O=C1CN(C(=O)N[C@H](c2ccc(F)c(Cl)c2)C2CCC(C(F)(F)F)CC2)CCN1 (single isomer, unassigned) [Example 1A]
Response: 3.5 nM

Prompt: Follow-up entry: Cc1cc(C(NC(=O)N2CCNC(=O)[C@H]2C)C2CCC(C(F)(F)F)CC2)ccc1F (single isomer, unassigned) [Example 36D]
Response: 3.99 nM

Prompt: Follow-up entry: C[C@@H]1C(=O)NCCN1C(=O)NC(c1ccc(F)c(Cl)c1F)C1CC2(C1)CC2(F)F (single isomer, unassigned) [Example 22B]
Response: 5.89 nM

Prompt: Follow-up entry: C[C@@H]1C(=O)NCCN1C(=O)NC(c1ccc(F)c(Cl)c1)[C@@H]1C[C@@H]2[C@H](C1)C2(F)F (single isomer, unassigned) [Example 7B]
Response: 11.7 nM

Prompt: Follow-up entry: C[C@@H]1C(=O)NCCN1C(=O)NC(c1ccc(F)c(Cl)c1F)C1CC(C2CC2)C1 (single isomer, unassigned) [Example 21A]
Response: 1.08 nM

Measured values drawn from patent US20220380338A1 for this set.
